Each recorded value in this set is attributed to PubChem BioAssay (NCI).

tested on: LOX IMVI melanoma; assay: NCI tumour cell line growth inhibition, 48 h
# GI50 listing for each entry below
observationType: GI50

[[record]]
compound = "COc1cc2c(c(OC)c1OC)C(=O)CC(c1cccc(NC(=O)c3ccc(Br)cc3)c1)O2 (configuration not stated)"
observationtype = "GI50"
experimentalvalue = "2.41 µM"

[[record]]
compound = "Cc1csc(/C=N/NC(=O)c2nnn(-c3ccnc4c(C(F)(F)F)cccc34)c2C)c1"
observationtype = "GI50"
experimentalvalue = "72.2 µM"

[[record]]
compound = "CC1=CC[C@@H]2C(C)(C)C(=O)CC[C@@]2(C)[C@@H]1COc1ccc2ccc(=O)oc2c1"
observationtype = "GI50"
experimentalvalue = "17.6 µM"

[[record]]
compound = "CC(=O)[CH-]C(=O)c1ccccc1.CC(=O)[CH-]C(=O)c1ccccc1.COc1cccc([O-])c1[O-].[Ti+4]"
observationtype = "GI50"
experimentalvalue = "25 µM"

[[record]]
compound = "C=CCn1c(=O)c2cnc(Nc3ccc(N4CCN(C)CC4)cc3)nc2n1-c1ccc2c(n1)[C@@](O)(CC)CC2"
observationtype = "GI50"
experimentalvalue = "1.02 µM"

[[record]]
compound = "N#CC(C#N)=Cc1c(-c2ccccc2)[nH]c2ccccc12"
observationtype = "GI50"
experimentalvalue = "3.27 µM"

[[record]]
compound = "O=C(Cn1c(=O)c(-c2ccccc2)nc2ccccc21)c1ccc(Cl)cc1"
observationtype = "GI50"
experimentalvalue = "55 µM"

[[record]]
compound = "Cc1cc(N2CCN(C)CC2)nc(NCc2cc(Nc3ccnc4cc(Cl)ccc34)ccc2F)n1"
observationtype = "GI50"
experimentalvalue = "1.67 µM"

[[record]]
compound = "CC(=O)Nc1ccc(-c2c3nc(c(-c4cc5ccccc5[n+](C)c4)c4ccc([nH]4)c(-c4ccc(NC(C)=O)cc4)c4nc(c(-c5cc6ccccc6[n+](C)c5)c5ccc2[nH]5)C=C4)C=C3)cc1"
observationtype = "GI50"
experimentalvalue = "12.5 µM"

[[record]]
compound = "CN(Cc1cnc(N)nc1N)c1ccc(C(=O)O)cc1"
observationtype = "GI50"
experimentalvalue = "> 100 µM"

[[record]]
compound = "O=C(CCCn1c(=O)c2sc3ccccc3c2n2nnc(-c3ccccc3)c12)NCCc1cnc[nH]1"
observationtype = "GI50"
experimentalvalue = "1.59 µM"

[[record]]
compound = "O=C(/C=C/c1ccccc1)c1c[nH]c2ccccc2c1=O"
observationtype = "GI50"
experimentalvalue = "2.88 µM"

